Quick list: shrunken log2 fold change per entry.
# Tested on: Escherichia coli TOP10;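 also: peptides expressed intracellularly from a pBAD plasmid library in pooled LB shake-flask culture, induced with 0.3% L-arabinose, DNA abundance read by NGS, three biological replicates, DESeq2 with apeglm shrinkage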
# test: shrunken log2 fold change of peptide-encoding DNA abundance (4.5 h post-induction vs induction); higher = less antimicrobial activity (less host growth inhibition)
# condition description: time post-induction: 4.5 h; library: site-saturation at positions 5, 18, 19, 20
Give only the figure.

-- ask Determine its reported shrunken log2 fold change: `RRIRHRPPRLPRPRPRPQYGPRP`
-- reply -0.0192

-- ask Give the reported value of shrunken log2 fold change for this record: `RRIRDRPPRLPRPRPRPHGKPRP`
-- reply 0.0283

-- ask For `RRIRWRPPRLPRPRPRPYVPPRP` , write its shrunken log2 fold change.
-- reply -0.837

-- ask Supply recorded shrunken log2 fold change for `RRIRYRPPRLPRPRPRPYNAPRP` here.
-- reply -0.471

-- ask Give reported shrunken log2 fold change value for `RRIRLRPPRLPRPRPRPIQRPRP`
-- reply -0.00804
